molecular target: Glutathione peroxidase 1 (Homo sapiens); test: Primary qHTS Assay for Inhibitors of Recombinant Selenoprotein Glutathione Peroxidase 1 (GPX1) (AID 1845191); conditions: recombinant GPX1, GR-coupled NADPH fluorescence, 15 min; series mostly up to 48.8 µM; also: nearly all actives have a fitted effect of over 65% in size
Inconclusive results are not listed. Activity calls are given as the source filed them. Calls follow the shape of the dose curve; as a rule, active = well fitted inhibition curve with a large enough effect; inconclusive = small, poorly fitted or top-dose-only effect; inactive = flat fitted curve, though single readings scatter.
parameter_measured: activity, negative = inhibition

CC(O)CO[C@@H]1O[C@H](CO)[C@@H](O)[C@H](O)[C@H]1O (some centres undefined) = inactive
COCC1OC(OC(C)(C)C2CCC3(C)C=C(C4CCC5C4(C)CC(O)C4OC(C(C)(C)OC6OC(CO)C(O)C(O)C6NC(C)=O)CCC45C)CCC3O2)C(NC(C)=O)C(O)C1O (centres undefined) = inactive
COc1ccc(-c2cnc3ccc(NCc4ccc(S(N)(=O)=O)cc4)nn23)cc1OC = inactive
COc1ccc([C@@]2(O)c3c(ccc4c3OC(C)(CCC=C(C)C)C=C4)NC(=O)[C@@H]2OC)cc1 (some centres undefined) = inactive

---

test system: SKOV3; assay: Primary qHTS to identify gynecologic anti-cancer compounds using libraries of approved drugs and bioactive compounds (AID 1345084); conditions: Gynecologic cancer cell panel viability, ATPlite luminescence, 48 h; series mostly up to 57.5 µM; also: nearly all actives have a fitted effect of over 55% in size
Inconclusive results are not listed. Active and inactive are the calls of the source. Calls come from the whole dose curve; as a rule, active = well fitted cell-killing curve with a large enough effect; inconclusive = small, poorly fitted or top-dose-only effect, or effect the other way; inactive = flat fitted curve, though single readings scatter.
Possible outcomes: active, inactive

C=C1C(OC(=O)/C(C)=C\C)[C@@]23CCC4[C@@](C)(CCC[C@@]4(C)C(=O)O)C2CC[C@H]1C3OC(C)=O (some centres not stated) = inactive
O=C(O)COCCN1CCN([C@H](c2ccccc2)c2ccc(Cl)cc2)CC1 = inactive
CC(C)(O)CC(CO)NC(=O)CC(O)CC(=O)Cc1ccccc1 (configuration not stated) = inactive
COc1ccc(-c2nc(-c3ccc(-c4cccc(Cl)c4)o3)[nH]c2-c2ccc(OC)cc2)cc1 = inactive
COc1c2cc(c(O)c1OC)-c1cc(ccc1O)CCC(O)CCCC2 (configuration not stated) = inactive
COc1ccc(C(O)C(C)OC2OC(CO)C(O)C(O)C2O)cc1 (configuration not stated) = inactive
CC/C=C\C/C=C\C/C=C\CCCCCCCC(=O)OCC(O)COC1OC(CO)C(O)C(O)C1O (configuration not stated) = inactive
CCOc1ccc(S(=O)(=O)n2c(C)nc3ccccc32)cc1 = inactive
CO[C@H]1C[C@@H]2CC[C@@H](C)[C@@](O)(O2)C(=O)C(=O)N2CCCC[C@H]2C(=O)O[C@H]([C@H](C)C[C@@H]2CC[C@@H](OP(C)(C)=O)[C@H](OC)C2)CC(=O)[C@H](C)/C=C(\C)[C@@H](O)[C@@H](OC)C(=O)[C@H](C)C[C@H](C)/C=C/C=C/C=C/1C = inactive
CO[C@H]1C[C@@H]2CC[C@@H](C)[C@@](O)(O2)C(=O)C(=O)N2CCCC[C@H]2C(=O)O[C@H]([C@H](C)C[C@@H]2CC[C@H](n3cnnn3)[C@H](OC)C2)CC(=O)[C@H](C)/C=C(\C)[C@@H](O)[C@@H](OC)C(=O)[C@H](C)C[C@H](C)/C=C/C=C/C=C/1C = inactive
CO/N=C(/C(=O)N[C@@H]1C(=O)N2C(C(=O)O)=C(Cn3ccc(=N)n3CCO)CS[C@H]12)c1csc(N)n1 = inactive
[N-]=[N+]=N[C@]1(CO)O[C@@H](n2ccc(=O)[nH]c2=O)[C@@H](O)[C@@H]1O = inactive
CCC(C)C(=O)O[C@H]1CCC=C2C=C[C@H](C)[C@H](CC[C@@H](O)C[C@@H](O)CC(=O)O)[C@H]21 (some centres not stated) = inactive
C[C@H](CCC(=O)O)[C@H]1CC[C@H]2[C@@H]3C[C@H](O)[C@@H]4C[C@H](O)CC[C@]4(C)[C@H]3CC[C@]12C = inactive
CC(=O)O[C@@H]1c2c3c(cc(O)c2C(=O)O[C@@H]1C)O[C@@]1(C)[C@@H](O)C[C@H]2C(C)(C)C(=O)C=C[C@]2(C)[C@@H]1C3 = inactive
CC(C)C(CO)Nc1nc(Nc2ccc(C(=O)O)c(Cl)c2)c2ncn(C(C)C)c2n1 (configuration not stated) = inactive
CC1=CC(=O)CC2C1(O)CCC(C)C21CC(c2ccoc2)OC1=O (configuration not stated) = inactive
COC(=O)/C=C/C12COC(C)(C)C1C(O)C(OC(C)=O)C1(C)C2CCC2(C)C(c3ccoc3)OC(=O)C3OC321 (configuration not stated) = inactive
CC1CCCCN1S(=O)(=O)c1ccc(N2CCCC2=O)cc1 (configuration not stated) = inactive
CC(C)(C)NS(=O)(=O)c1cncc(-c2cc(F)c3nc(N)nn3c2)c1 = inactive
N#CC(c1ccnc(OCc2ccc(CN3CCOCC3)cc2)n1)c1nc2ccccc2s1 (configuration not stated) = active
CC(=O)OC[C@@]12C(=O)C[C@@H](C)[C@]3(C[C@@H](c4ccoc4)O[C@H]3OC(C)=O)[C@H]1CCC[C@]21CO1 = inactive
C[C@@H]1CN(Cc2ncccn2)C[C@H]1c1nc2c(cnn2C2CCOCC2)c(=O)[nH]1 = inactive
C=C[C@H]1C(O[C@@H]2O[C@H](CO)[C@@H](O)[C@H](O)[C@H]2O)OC=C2C(=O)N3CCc4c([nH]c5ccccc45)C3CC21 (some centres not stated) = inactive
C=C(C)C1CCC(C)C12CC(O)C1(C)OC1C2OC(=O)C(N)CCC(=O)O (configuration not stated) = inactive
Cc1nc([C@](C)(O)CO)sc1-c1cnc(N)c(O[C@H](C)c2cc(F)ccc2-n2nccn2)c1 = inactive
CC1=C(CO)C(=O)O[C@@H]([C@@H](C)[C@H]2CC[C@H]3[C@@H]4C[C@H]5O[C@]56[C@@H](O)C=CC(=O)[C@]6(C)[C@H]4CC[C@]23C)C1 = active
CCc1c(-c2ccccc2)c(-c2ccccc2)nn1-c1ccccc1-c1cccc(OCC(=O)O)c1 = inactive
COc1ccc(C(=O)C2CCN(CC(=O)N(Cc3nc4c(c(=O)[nH]3)COCC4)CC3CC3)CC2)cc1 = inactive
CCOCCOC(=O)/C=C/c1ccc(OC)cc1 = inactive
O=C(/C=C\c1ccc(O)cc1)N[C@@H](Cc1ccc(O)cc1)C(=O)O = inactive
CC(CO)C1CCC2(C)CC3C(CO)CC(O)C3C(C)(O)C/C=C/12 (configuration not stated) = inactive
